measuredTarget: T1, Soluble heterodimeric CD3 protein (hCD3-epsilon/hCD3-delta) with a human Fc tag (hFcΔAdp/hFc) or a mouse Fc … (human, UniProt P07766 23-126; P04234 22-105)
T1 construct: also called hCD3ε/δ; not shown: Fc tag: human (hFcΔAdp/hFc); which tag was used in Ta
T1 sequence (P07766 23-126 limits assumed, stated change not applied, chain 1 of 2): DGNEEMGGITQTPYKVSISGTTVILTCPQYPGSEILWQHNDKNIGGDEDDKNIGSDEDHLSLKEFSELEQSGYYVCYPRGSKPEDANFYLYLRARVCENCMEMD
T1 sequence (P04234 22-105 limits assumed, stated change not applied, chain 2 of 2): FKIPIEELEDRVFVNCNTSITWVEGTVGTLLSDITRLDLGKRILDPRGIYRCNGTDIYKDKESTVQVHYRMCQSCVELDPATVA
assayRemarks: SPR Biacore, 25 C, antibody-capture format
observable: pKd
A value of pKd is the negative decimal logarithm of a concentration given in moles per litre.

# count of solved cases: 9
Entry under test: H2M2885N (antibody, V domains shown, Hybridoma antibody, human variable regions, mouse IgG2 Fc) VH: QVQLVESGGGVVQPGRSLRLSCAASGFTFRSFGMHWVRQAPGRGLEWVAMIYFDGKNKYYADSVRGRFTISRDNSKNTLYLEMSSLRAEDTAVYFCARGPGYNWLDPWGQGTLVTVSS VL: EIVMTQSPATLSVSPGERVILSCRASQSISRNLAWYQQKPGQAPRLLIYGATTRATGVPARFSGSGSGTEFTLTISSLQSEDFAVFYCQQYNNRPLTFGGGTEVEIK . Its pKd was 8.02

Entry under test: H2M2706N (antibody, V domains shown, Hybridoma antibody, human variable regions, mouse IgG2 Fc) VH: QVQLVESGGGVVQPGRSLRLSCAASGFTFRSYAMHWVRQAPGKGLEWVAMVYYDGNNQYYADSVRGRFTISRDNSKNTLYLQMNSLRADDTAVYFCARGPGYNWLDPWGQGTLVTVSS VL: EIVMTQSPATLSVSPGERATLSCRASQSVSRNLAWYQQKPGQAPRLLIYGASTRATGIPARFSGSGSGTDFTLTISSLQSEDFAVYYCQQYNNWPLTFGGGTKVVIK . Its pKd was 6.87

Entry under test: H2M2774N (antibody, V domains shown, Hybridoma antibody, human variable regions, mouse IgG2 Fc) VH: QVQLVESGGGVVQPGRSLRLSCVASGFTFRSYGMHWVRQAPGKGLQWVAMIYYDGKNKYYADSVRGRFTISRDNSKNTLYLQMNSLRAEDTAMYFCARGPGYNWLDPWGQGTLVTVSS VL: EIVMTQSPATLSVSPGERATLSCRASQRISSNLAWYQQKPGQAPRLLIYGASTRATGSPARFSGSGSGTEFTLTISSLQSEDVAVYYCQQHNNWPLTFGGGTKVEIK . Its pKd was 7.93

Entry under test: H2M2777N (antibody, V domains shown, Hybridoma antibody, human variable regions, mouse IgG2 Fc) VH: QVQLVESGGGVVQPGRSLRLSCIASGFTFRSYGMHWVRQAPGKGLEWVAMIYYDGNNKYYADSVRGRFTISRDNSKNTLYLQMNSLRADDTAVYFCARGPGYNWLDPWGQGTLVTVSS VL: EIVMTQSPATLSVSPGERATLSCRASQSVSSNLAWYQQKPGQAPRLLIYGASTRATGIPARFSGSGSGTEFTLTISSLQSEDFAVYYCQQYNNRPLTFGGGTKVEIK . Its pKd was 7.36

Entry under test: H2M2710N (antibody, V domains shown, Hybridoma antibody, human variable regions, mouse IgG2 Fc) VH: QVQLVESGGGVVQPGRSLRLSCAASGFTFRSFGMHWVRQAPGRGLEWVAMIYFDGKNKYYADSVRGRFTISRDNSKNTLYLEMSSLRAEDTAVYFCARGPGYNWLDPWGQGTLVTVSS VL: EIVMTQSPATLSVSPGERATLSCRASQSVSRNLAWYQQKPGQAPRLLIYGASTRATGVPARFSGSGSGTEFTLTISSLQSEDFAVFHCQQYNNRPLTFGGGTEVEIK . Its pKd was 7.95

Entry under test: H1M2712N (antibody, V domains shown, Mouse IgG1 Fc form) VH: EVQLVESGGGLVQPGGSLRLSCAATGFTFDDFTMHWVRQAPGKGLEWVSGISWNSGSIGYVDSVKGRFTISRDNAKNSLYLQMNSLRAEDTALYYCAKDNSGYGYYYYGMDVWGQGTTVTVSS VL: EIVMTQSPATLSVSPGERATLSCRASHSVSRNSAWYQQKPGQAPRLLIYGASTRATGIPARFSGSGSGTEFTLTISSLQSEDFAIYYCQQYNNWPLTFGGGTKVEIK . Its pKd was 7.63

Entry under test: H2M2711N (antibody, V domains shown, Hybridoma antibody, human variable regions, mouse IgG2 Fc) VH: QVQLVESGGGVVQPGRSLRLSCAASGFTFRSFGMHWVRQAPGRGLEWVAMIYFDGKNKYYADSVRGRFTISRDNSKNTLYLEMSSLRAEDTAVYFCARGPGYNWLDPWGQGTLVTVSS VL: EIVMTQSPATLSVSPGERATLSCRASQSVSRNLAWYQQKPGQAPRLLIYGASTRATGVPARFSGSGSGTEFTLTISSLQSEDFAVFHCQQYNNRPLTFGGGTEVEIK . Its pKd was 7.94

Entry under test: H2M2690N (antibody, V domains shown, Hybridoma antibody, human variable regions, mouse IgG2 Fc) VH: EVQLVESGGGLVQPGRSLRLSCAASGFTFDDYTMHWVRQAPGKGLEWVSGISWNSGSIGYADSVKGRFTISRDNAKKSLYLQMNSLRAEDTALYYCAKDNSGYGHYYYGMDVWGQGTTVTVAS VL: EIVMTQSPATLSVSPGERATLSCRASQSVSSNLAWYQQKPGQAPRLLIYGASTRATGIPARFSGSGSGTEFTLTISSLQSEDFAVYYCQHYINWPLTFGGGTKVEIK . Its pKd was 7.68

Entry under test: H2M3547N (antibody, V domains shown, Hybridoma antibody, human variable regions, mouse IgG2 Fc) VH: EAQLVESGGGLVQPGRSLRLSCTTSGFTFDDYTMHWVRQAPGKGLEWISDISWNGGTKGYADSVKGRFTISRDNAKNSLYLQMDSLRGEDTALYYCVKDKSGYGHFYFGLDVWGQGTTVTVSS VL: DIQMTQSPSSLTASVGDRVTFTCRASQSISRHLSWYQQKPGKAPKLLIYAASSLESGVPSRFSGSGSGTDFTLTISSLHPEDFATYYCQQSYSNPPITFGQGTRLEIK . Its pKd was 7.80

Kindly consider the entry below.
Entry under test: H2M2886N (antibody, V domains shown, Hybridoma antibody, human variable regions, mouse IgG2 Fc) VH: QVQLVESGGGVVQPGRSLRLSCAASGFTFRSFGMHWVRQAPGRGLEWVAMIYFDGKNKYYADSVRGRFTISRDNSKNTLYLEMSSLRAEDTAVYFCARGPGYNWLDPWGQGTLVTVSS VL: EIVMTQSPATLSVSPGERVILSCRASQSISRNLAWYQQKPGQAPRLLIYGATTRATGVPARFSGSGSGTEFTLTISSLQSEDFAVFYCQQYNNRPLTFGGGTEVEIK . Its pKd was 8.05

All values here come from patent US20190127480A1.
